B1: USP39 (parent)
chain: FVEKNPTIVNFPITNVDLREYLSE

Variants of: B1
ASSAY PROCEDURE: protein stability index of a GFP-peptide fusion (GPS, HEK-293T) (PSI 1-6); higher = more stable;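 further: lentivirally expressed fusions sorted by FACS into six bins by GFP to DsRed ratio, PSI derived from sequencing read proportions per bin multiplied by bin number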
RUN PARAMETERS: c terminus: a fixed tail appended
Consider the following partition of reported protein stability index into named classes: low: < 2; medium: ≥ 2 and < 3; high: ≥ 3

{"MUTATION NAME": "N15M", "CATEGORY LABEL": "medium"}
{"MUTATION NAME": "F11Y", "CATEGORY LABEL": "high"}
{"MUTATION NAME": "D17I", "CATEGORY LABEL": "high"}
{"MUTATION NAME": "I8E", "CATEGORY LABEL": "medium"}
{"MUTATION NAME": "P12M", "CATEGORY LABEL": "high"}
{"MUTATION NAME": "S23C", "CATEGORY LABEL": "medium"}
{"MUTATION NAME": "V2E", "CATEGORY LABEL": "high"}
{"MUTATION NAME": "L22Y", "CATEGORY LABEL": "low"}
{"MUTATION NAME": "E24D", "CATEGORY LABEL": "low"}
{"MUTATION NAME": "T14E", "CATEGORY LABEL": "low"}
{"MUTATION NAME": "I8G", "CATEGORY LABEL": "low"}
{"MUTATION NAME": "T14M", "CATEGORY LABEL": "low"}
{"MUTATION NAME": "L18G", "CATEGORY LABEL": "medium"}
{"MUTATION NAME": "T14N", "CATEGORY LABEL": "medium"}
{"MUTATION NAME": "N10F", "CATEGORY LABEL": "low"}
{"MUTATION NAME": "L18D", "CATEGORY LABEL": "medium"}
{"MUTATION NAME": "T14I", "CATEGORY LABEL": "high"}
{"MUTATION NAME": "K4S", "CATEGORY LABEL": "medium"}
{"MUTATION NAME": "E20C", "CATEGORY LABEL": "low"}
